assay.system: COX-1 (Ovis aries, UniProt P05979)
Construct: purchased Cayman Chemical (Michigan, US)
Sequence (P05979 25-600): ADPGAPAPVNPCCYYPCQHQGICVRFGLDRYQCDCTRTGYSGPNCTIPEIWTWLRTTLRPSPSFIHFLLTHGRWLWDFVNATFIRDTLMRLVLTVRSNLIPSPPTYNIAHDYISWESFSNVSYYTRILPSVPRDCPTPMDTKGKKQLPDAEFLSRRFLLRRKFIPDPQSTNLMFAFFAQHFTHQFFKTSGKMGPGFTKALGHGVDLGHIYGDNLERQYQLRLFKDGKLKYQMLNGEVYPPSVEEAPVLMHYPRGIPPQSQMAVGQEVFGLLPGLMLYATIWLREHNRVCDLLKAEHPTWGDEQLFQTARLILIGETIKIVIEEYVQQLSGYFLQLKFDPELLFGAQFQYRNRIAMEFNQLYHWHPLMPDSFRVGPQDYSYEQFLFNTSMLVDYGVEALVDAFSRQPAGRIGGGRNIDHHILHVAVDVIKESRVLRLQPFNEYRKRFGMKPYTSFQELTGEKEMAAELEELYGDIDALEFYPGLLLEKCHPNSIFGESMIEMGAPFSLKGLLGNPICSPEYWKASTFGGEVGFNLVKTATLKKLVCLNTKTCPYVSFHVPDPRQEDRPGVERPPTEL
test: Effect on cyclooxygenase-1 (PGE2 production from 14C-arachidonic acid, HPLC radioactivity detection)
Type: biochemical
pIC50: −log10 of the molar value.
measurement.label: pIC50

INSERT INTO measurements (compound, assay_system, reading) VALUES
  ('O=c1c(O[C@@H]2O[C@H](CO)[C@@H](O)[C@H](O)[C@H]2O)c(-c2ccc(O)c(O)c2)oc2cc(O)cc(O)c12 [Compound 3, isoquercitrin]', 'COX-1 (Ovis aries, UniProt P05979)', 3.99);

====

assay.system: COX-1 (Ovis aries)
Construct: purchased Cayman Chemical (Michigan, US)
Sequence (P05979 25-600): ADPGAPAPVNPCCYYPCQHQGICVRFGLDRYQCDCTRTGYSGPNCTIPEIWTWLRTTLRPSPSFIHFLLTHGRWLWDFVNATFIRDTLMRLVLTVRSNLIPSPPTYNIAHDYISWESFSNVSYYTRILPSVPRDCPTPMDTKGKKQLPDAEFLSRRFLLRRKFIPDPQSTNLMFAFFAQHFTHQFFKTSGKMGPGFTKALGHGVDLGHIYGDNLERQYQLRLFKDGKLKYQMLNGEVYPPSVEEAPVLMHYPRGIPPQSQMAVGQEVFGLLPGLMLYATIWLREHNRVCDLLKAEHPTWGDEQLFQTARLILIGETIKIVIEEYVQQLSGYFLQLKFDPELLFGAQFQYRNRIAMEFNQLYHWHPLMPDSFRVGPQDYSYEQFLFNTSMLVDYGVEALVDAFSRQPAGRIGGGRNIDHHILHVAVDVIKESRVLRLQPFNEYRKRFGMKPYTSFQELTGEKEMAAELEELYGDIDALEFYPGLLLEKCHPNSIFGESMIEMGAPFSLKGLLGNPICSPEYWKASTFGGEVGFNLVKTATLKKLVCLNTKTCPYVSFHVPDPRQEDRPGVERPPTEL
test: Effect on cyclooxygenase-1 (PGE2 production from 14C-arachidonic acid, HPLC radioactivity detection)
Format: biochemical
run.conditions: means of three determinations; 30 min at 37 °C, Tris-HCl pH 8.0; I.A. = Inactive; read-out: IC50 of COX-1
Field 'label' (enum: satisfied / not satisfied). Set to satisfied when IC50 is strictly under 100 µM; else not satisfied.

INSERT INTO measurements (compound, assigned_label) VALUES
  ('O=c1cc(-c2ccc(O)c(O)c2)oc2cc(O[C@@H]3O[C@H](CO)[C@@H](O)[C@H](O)[C@H]3O)cc(O)c12 [Compound 5, luteolin 7-O-glucoside]', 'satisfied'),
  ('CC1(C)C=Cc2c(cc(O)c3c(=O)c(OC4OC(CO)C(O)C(O)C4O)c(-c4ccc(O)c(O)c4)oc23)O1 (centres unmarked)', 'not satisfied'),
  ('CC(=O)c1ccc(OC2OC(CO)C(O)C(O)C2O)cc1 (centres unmarked) [Compound 8, piceoside]', 'not satisfied'),
  ('COc1cc(O)cc(OC)c1OC1OC(CO)C(O)C(O)C1O (centres unmarked) [Compound 7, leonuriside A]', 'not satisfied');

====

assay.system: COX-2 (Homo sapiens, UniProt P35354)
Sequence (P35354 18-604): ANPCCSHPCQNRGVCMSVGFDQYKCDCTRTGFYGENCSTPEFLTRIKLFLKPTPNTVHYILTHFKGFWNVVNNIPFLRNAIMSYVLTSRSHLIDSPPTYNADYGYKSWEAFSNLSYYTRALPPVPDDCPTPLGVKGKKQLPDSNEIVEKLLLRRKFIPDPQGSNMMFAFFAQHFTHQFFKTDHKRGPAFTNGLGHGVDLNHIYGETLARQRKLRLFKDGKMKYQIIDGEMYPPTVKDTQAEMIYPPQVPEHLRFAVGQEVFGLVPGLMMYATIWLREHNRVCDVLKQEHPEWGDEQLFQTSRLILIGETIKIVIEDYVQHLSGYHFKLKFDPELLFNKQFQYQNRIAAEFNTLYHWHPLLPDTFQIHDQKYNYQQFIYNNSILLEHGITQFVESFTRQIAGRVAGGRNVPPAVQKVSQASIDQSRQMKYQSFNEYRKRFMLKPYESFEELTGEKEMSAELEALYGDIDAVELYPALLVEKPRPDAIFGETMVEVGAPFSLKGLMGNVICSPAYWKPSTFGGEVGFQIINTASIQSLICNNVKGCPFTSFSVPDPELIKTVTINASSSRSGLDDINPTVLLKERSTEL
test: Effect on cyclooxygenase-2 (PGE2 production from 14C-arachidonic acid, HPLC radioactivity detection)
run.conditions: means of three determinations; 30 min at 37 °C, Tris-HCl pH 8.0; I.A. = Inactive
Description: COX-1 and COX-2 were purchased from Cayman Chemical (Michigan, US). The ^14C-labeled arachidonic acid (>200 µCi, NEN) was purchased from New England Nuclear Co. (Boston, US). […] The effect of the tested compounds on cyclooxygenase-1 and -2 (COX-1 and -2) was determined by measuring PGE2 production. […] Arachidonic acid and its radio-labeled metabolites were separated and determined by reversed-phase HPLC using a Berthold radioactivity monitor. […]
measurement.label: IC50

INSERT INTO results (compound, measurement_label, reading) VALUES
  ('COc1cc(O)cc(OC)c1OC1OC(CO)C(O)C(O)C1O (centres unmarked) [Compound 7, leonuriside A]', 'IC50', '200 µM'),
  ('CC1(C)C=Cc2c(cc(O)c3c(=O)c(OC4OC(CO)C(O)C(O)C4O)c(-c4ccc(O)c(O)c4)oc23)O1 (centres unmarked)', 'IC50', '27.3 µM'),
  ('COc1ccc2c(=O)cc(-c3ccccc3)oc2c1', 'IC50', '169 µM'),
  ('O=c1cc(-c2ccc(O)c(O)c2)oc2cc(O[C@@H]3O[C@H](CO)[C@@H](O)[C@H](O)[C@H]3O)cc(O)c12 [Compound 5, luteolin 7-O-glucoside]', 'IC50', '39.1 µM'),
  ('O=c1cc(-c2ccc(O)cc2)oc2cc(O)ccc12 [Compound 6, 4'',7-dihydroxyflavone]', 'IC50', '58.8 µM');
